These measurements were taken from ChEMBL document CHEMBL5291721.

The following are reported AC50 results, target or system Kappa-type opioid receptor (Homo sapiens). Further: assay procedure not described here.
test.readout: AC50

- CS(=O)(=O)Nc1ccc([N+](=O)[O-])cc1Oc1ccccc1 [NIMESULIDE]: > 30 µM
- CC1CC(OC(=O)C(O)c2ccccc2)CC(C)(C)C1 (configuration not stated) [CYCLANDELATE]: > 10 µM
- CC(C)(Oc1ccc(Cl)cc1)C(=O)OCCOC(=O)c1cccnc1 [ETOFIBRATE]: > 30 µM
- Nc1cc(N2CCCCC2)nc(N)[n+]1[O-]: > 10 µM
- Cc1c(C)c2c(c(C)c1O)CCC(C)(COc1ccc(CC3SC(=O)NC3=O)cc1)O2 (configuration not stated): 18 µM
- CC(C)(C)NCC(O)COc1ccccc1C#N (configuration not stated): > 30 µM
- CN(C)CCCC1(c2ccc(F)cc2)OCc2cc(C#N)ccc21 (configuration not stated): > 10 µM
- CCC1(c2ccccc2)C(=O)NCNC1=O: > 10 µM
- CN(C)CCN(Cc1ccccc1)c1ccccn1: 6.25 µM
- NCCCNCCSP(=O)(O)O: > 30 µM
- COc1ccc(-n2nc(C(N)=O)c3c2C(=O)N(c2ccc(N4CCCCC4=O)cc2)CC3)cc1: > 30 µM
- O=C1CC2(CCCC2)CC(=O)N1CCCCN1CCN(c2ncccn2)CC1: > 10 µM
- COc1ccc(-c2cc(=S)ss2)cc1: > 30 µM
- CCCCOC(=O)C(=O)Nc1cccc(-c2nnn[nH]2)c1: > 30 µM
- O=C(O[C@H]1C[N+]2(CCCOc3ccccc3)CCC1CC2)C(O)(c1cccs1)c1cccs1 [ACLIDINIUM BROMIDE]: 13.9 µM
- C[C@]12C=CC(=O)C=C1C(Cl)=C[C@@H]1[C@@H]2[C@@H](O)C[C@@]2(C)[C@H]1CC[C@]2(O)C(=O)CO: > 30 µM
- CC1=C(CC(=O)O)c2cc(F)ccc2/C1=C\c1ccc([S+](C)[O-])cc1 (configuration not stated): > 10 µM
